Origin of measurements: patent US20140155415A1

Target: GK-GKRP (glucokinase / glucokinase regulatory protein) (Homo sapiens)
Sequence (Q14397 whole entry): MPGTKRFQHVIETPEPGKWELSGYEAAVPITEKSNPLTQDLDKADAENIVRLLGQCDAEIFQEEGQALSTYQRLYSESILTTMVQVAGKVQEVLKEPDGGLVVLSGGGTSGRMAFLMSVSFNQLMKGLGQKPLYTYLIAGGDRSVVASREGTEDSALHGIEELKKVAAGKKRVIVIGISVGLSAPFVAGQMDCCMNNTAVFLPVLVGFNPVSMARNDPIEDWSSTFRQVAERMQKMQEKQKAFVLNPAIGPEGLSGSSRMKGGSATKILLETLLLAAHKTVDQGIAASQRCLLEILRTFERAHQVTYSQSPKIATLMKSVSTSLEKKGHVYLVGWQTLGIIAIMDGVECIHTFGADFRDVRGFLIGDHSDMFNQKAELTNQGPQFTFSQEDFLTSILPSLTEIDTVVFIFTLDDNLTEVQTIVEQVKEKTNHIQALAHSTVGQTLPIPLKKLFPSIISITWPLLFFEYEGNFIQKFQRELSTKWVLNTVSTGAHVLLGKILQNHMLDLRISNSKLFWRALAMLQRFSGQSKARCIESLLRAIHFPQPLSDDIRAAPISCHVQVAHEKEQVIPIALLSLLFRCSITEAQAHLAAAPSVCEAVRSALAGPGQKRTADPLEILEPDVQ
Assay: GKRP LC MS/MS Biochemical Assay (LCMS/MS)
Conditions: formation of 13C-glucose-6-phosphate from 13C-glucose by LC MS/MS, human His-hepatic GK, fructose-6-phosphate
measured parameter: pEC50
One number for each entry, as −log10 of the molar value.

O=S(=O)(NC(c1cc2ccccc2o1)c1ccccc1I)c1ccc2c(c1)OCCCO2 (racemic): 7.12

// each molecule listed below needs its pEC50
1. O=S(=O)(NC(c1cc2ccccc2o1)c1ccccc1Br)c1ccc2c(c1)OCCCO2 (racemic)
2. C[C@@](O)(c1ccnc(-c2cccc3cc([C@H](NS(=O)(=O)c4ccc5c(c4)OCCCO5)c4ccccc4)sc23)c1)C(F)(F)F (single isomer, unassigned) [Example 70 Peak #1]
3. O=S(=O)(NC(c1cc2ccccc2o1)c1cccs1)c1ccc2c(c1)OCCCO2 (racemic)
4. COc1ccccc1C(NS(=O)(=O)c1ccc2c(c1)OCCCO2)c1nc2cccnc2s1 (racemic)

1: 7.24; 2: 7.77; 3: 6.13; 4: 7.02
